# METHOD_SUMMARY: Cytotoxicity against mouse […] cells after 12 to 24 hrs relative to ribavirin
# Format: cell-based
# CONDITION_LABEL: read-out: TD50 (the source's name)
MEASURED_PARAMETER: CC50

- COMPOUND: "CC(C)C[C@H](NC(=O)CNC(=O)OCc1ccccc1)C(=O)N[C@H](C=O)CC1CCNC1=O (some centres not stated)"
  CC50: "> 320 µM"

Shift focus to the following entry.
get_value(item= CC(C)C[C@H](NC(=O)OCc1ccccc1)C(=O)N[C@H](C=O)CC1CCNC1=O (some centres not stated) , readout=CC50) returns > 320 µM

----------
# Test system: Norwalk virus
# METHOD_SUMMARY: Antiviral activity against Norwalk virus in NV replicon-harboring HG23 cells assessed as inhibition of viral replication after 24 hrs by analyzing NV genome level using qRT-PCR
# Type: functional
# CONDITION_LABEL: HG23, 24 h, read-out: ED50 (the source's name)
MEASURED_PARAMETER: EC50
Write the quantity with the unit trailing the number.

Record CC(C)C[C@H](NC(=O)CNC(=O)OCc1ccccc1)C(=O)N[C@H](C=O)CC1CCNC1=O (stereo partly specified) has Norwalk virus EC50 equal to 7.8 µM

----------
# maps each entry to its inhibition
# System: Norwalk virus
# METHOD_SUMMARY: Inhibition of recombinant Norwalk virus 3C protease using Edans-EPDFHLQGPEDLAK-Dabcyl as substrate at [compound]/[substrate] ratio of 25 preincubated for 30 mins measured for 30 mins by spectrofluorometry
# Set-up: concentration or dose not given beside the values

- MOLECULE: "CC(C)C[C@H](NC(=O)OCc1ccccc1)C(=O)N[C@@H](CC1CCNC1=O)C(=O)C(=O)NC(C)C (stereo not given in full)"
  TARGET: "Norwalk virus"
  inhibition: "< 25%"
- MOLECULE: "O=C[C@H](CC1CCNC1=O)NC(=O)[C@H](Cc1ccccc1)NC(=O)N1CCOCC1 (stereo not given in full)"
  TARGET: "Norwalk virus"
  inhibition: "< 25%"
- MOLECULE: "CC(C)C[C@H](NC(=O)OCc1ccccc1)C(=O)N[C@H](CO)CC1CCNC1=O (stereo not given in full)"
  TARGET: "Norwalk virus"
  inhibition: "< 25%"
- MOLECULE: "CCCC[C@H](NC(=O)CNC(=O)OCc1ccccc1)C(=O)N[C@H](CO)CC1CCNC1=O (stereo not given in full)"
  TARGET: "Norwalk virus"
  inhibition: "< 25%"

Shift focus to the following entry.
get_value(item= CC(C)C[C@H](NC(=O)CNC(=O)OCc1ccccc1)C(=O)N[C@H](CO)CC1CCNC1=O (stereo not given in full) , readout=inhibition) returns < 25%
